The measurements presented in this section are drawn from patent US11427574B2.

# System: P12-Ichikawa cells
# procedureText: Proliferation assay in P12 leukemia cells
# Type: cell-based
# conditionInfo: Homo sapiens, read-out: IC50, inhibition of proliferation
recordedMetric: IC50 (µM)
Numbers only, in µM.

stdin: Need IC50, item CCc1ccc(CN(C)C(=O)CCc2nnc(CCc3c[nH]c4ccccc34)o2)nc1 (racemic) [Compound 1]
stdout: 39.2
